# reported EC50; entries follow
assayTarget: G protein-activated inward rectifier potassium channel 1 (Rattus norvegicus) (UniProt P63251)
Sequence (P63251 whole entry, looked up): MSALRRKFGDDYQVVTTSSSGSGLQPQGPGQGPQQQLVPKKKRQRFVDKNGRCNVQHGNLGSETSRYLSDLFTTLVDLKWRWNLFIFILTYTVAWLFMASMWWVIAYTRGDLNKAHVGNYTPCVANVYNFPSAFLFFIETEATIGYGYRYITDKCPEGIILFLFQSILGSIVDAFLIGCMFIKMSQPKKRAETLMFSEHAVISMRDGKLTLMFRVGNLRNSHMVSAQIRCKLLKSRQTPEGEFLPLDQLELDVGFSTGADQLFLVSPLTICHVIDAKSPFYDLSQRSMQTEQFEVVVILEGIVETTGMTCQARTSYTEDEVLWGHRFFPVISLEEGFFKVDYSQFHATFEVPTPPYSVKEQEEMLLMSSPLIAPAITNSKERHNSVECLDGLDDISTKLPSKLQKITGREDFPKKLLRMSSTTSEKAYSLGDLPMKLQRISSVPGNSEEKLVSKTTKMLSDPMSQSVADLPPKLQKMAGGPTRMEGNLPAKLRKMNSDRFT
testDetails: alpha2C adrenergic receptor agonists via GIRK, dose response, cell-based, thallium flux (AID 435014)
conditionInfo: HEK293 alpha2C/GIRK1/2, thallium flux fluorescence

Completed entries (count: 4):
compound	EC50
Brc1c(NC2=NCCN2)ccc2nccnc12	82 nM
Cc1c2ccncc2c(C)c2c1[nH]c1ccccc12	3080 nM
CC(=O)OCC[N+](C)(C)C	134 nM
CN(C)c1ccc(/C=C/C(O)=C2/C(=O)N(C)C3(C)CC2c2ccccc2O3)cc1 (stereo not given)	1990 nM

Consider the record given below.
Looking up C[C@H]1OC[C@@H](C[N+](C)(C)C)O1 , I found its EC50 recorded as 393 nM

###

assayTarget: G protein-activated inward rectifier potassium channel 1 (Rattus norvegicus) (UniProt P63251)
testDetails: alpha2C adrenergic receptor agonists via GIRK, dose response, cell-based, thallium flux (AID 435014)
conditionInfo: HEK293 alpha2C/GIRK1/2, thallium flux fluorescence; at 10 µM (top of the series)
Calls of active or inactive are those of the source.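 How the source made its calls: active means dose response that fits an S-shaped curve with fit quality R squared above 0.5; inactive means the rest.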
experimentalEndpoint: activation

Completed entries (count: 8):
COc1cccc(-c2nc(-c3ccc(NC(=O)Cc4ccccc4OC)cc3)no2)c1 inactive
Cc1ccc2c(C)nc(Nc3nc(CSc4nnnn4-c4ccccc4)cc(=O)[nH]3)nc2c1 inactive
CCSc1nnc(NC(=O)NC(CC)(C(F)(F)F)C(F)(F)F)s1 inactive
COc1cc(C(=O)Nc2cccc(-c3nc4cc(C)ccc4o3)c2)cc(OC)c1OC inactive
COc1ccccc1NC(=O)c1oc2ccccc2c1NC(=O)c1cc(OC)c(OC)c(OC)c1 inactive
COc1ccc(-c2oc3ncn4nc(COc5ccccc5)nc4c3c2-c2ccc(OC)cc2)cc1 inactive
COc1cccc2c1C(=O)c1c(O)c3c(c(O)c1C2=O)C[C@@](O)(C(=O)CO)C[C@@H]3O[C@H]1C[C@H](N)[C@H](O)[C@H](C)O1 inactive
CCOc1nc(-c2ccccc2)ccc1-c1noc(-c2ccc(OC)c(OC)c2)n1 inactive

Looking up CCOC(=O)c1sc(NC(=O)c2noc3c2CCCC3)c(C(=O)OCC)c1C , I found its activation recorded as inactive

Looking up CCOc1ccc2nc(NC(=O)CSc3nc4ccccc4c(=O)n3Cc3ccco3)sc2c1 , I found its activation recorded as inactive

Looking up COC(=O)c1ccccc1NC(=O)c1ccc(-c2ccccc2F)o1 , I found its activation recorded as inactive
